test system: U2OS; experiment: Multiplex assay against U2OS; assay type: toxicity, cell-based; settings: human, 48 h, 1 µM, compound concentration 1 uM, replicate 1
Here the recorded Population Hoechst High Intensity Objects (%) is given for each entry.
measured_metric: Population Hoechst High Intensity Objects (%)

> print(dat)
                                   compound  observed.measurement
1  COc1ncc(-c2ccc3nccc(-c4ccnnc4)c3c2)cc1NS(=O)(=O)c1ccc(F)cc1F                   12%
2  C=CC(=O)Nc1cccc(C(=O)Nc2ccc(Nc3cc(-c4[nH]c(SC)nc4C)ccn3)cc2)c1                    3%
3  CN(C)C(=O)N[C@H]1CC[C@H](CCN2CCN(c3cccc(Cl)c3Cl)CC2)CC1.Cl [CARIPRAZINE HYDROCHLORIDE]                    6%
4  CN(C)C(=O)/C(C#N)=C/c1ccc(-c2nc3cnc4[nH]ccc4c3n2C2CCCCC2)o1                    0%

----------
tested on: U2OS; test: Multiplex assay against U2OS; assay type: toxicity, cell-based; conditions: human, 12 h, 10 µM, compound concentration 10 uM, replicate 2
measured_metric: Population Hoechst High Intensity Objects (%)

> print(dat)
                            chemical.smiles  observed.measurement
1  CNc1nc(NCc2ccc(NS(C)(=O)=O)cc2Cl)cc(-c2ccccn2)n1                     9
2  Cc1c(-c2ccc(O)cc2)n(Cc2ccc(OCCN3CCCCCC3)cc2)c2ccc(O)cc12                     2
3  Cc1[nH]c(/C=C2\C(=O)Nc3ccc(S(=O)(=O)N(C)c4cccc(Cl)c4)cc32)c(C)c1C(=O)N1CCN(C)CC1                    12
4  c1cn2cc(-c3ccc4cn[nH]c4c3)nc(Nc3ccc(N4CCOCC4)cc3)c2n1                    25

----------
Catalogue of Population Mitotic Cells (%) values
tested on: U2OS; assay: Multiplex assay against U2OS; type: toxicity, cell-based; details: human, 24 h, 10 µM, compound concentration 10 uM, replicate 2
measured_metric: Population Mitotic Cells (%)

> print(dat)
                                   molecule               measured.metric  observed.measurement
1  CC[C@H](C)C(=O)O[C@H]1C[C@@H](C)C=C2C=C[C@H](C)[C@H](CC[C@@H]3C[C@@H](O)CC(=O)O3)[C@H]21  Population Mitotic Cells (%)                    71
2  Cc1nc(-c2cn3c(n2)-c2ccc(-c4cnn(C(C)(C)C(N)=O)c4)cc2OCC3)n(C(C)C)n1  Population Mitotic Cells (%)                    40
3  Cc1cc(C)cc(-c2cnc3cc(Cl)c(-c4cccc(O)c4)cc3c2OCCCN)c1  Population Mitotic Cells (%)                     6
4  O=C1NCN(c2ccccc2)C12CCN(CCCOc1ccc(F)cc1)CC2 [SPIRAMIDE]  Population Mitotic Cells (%)                    72

----------
system: Fibroblast; assay: Multiplex assay against human fibroblast; type: toxicity, cell-based; settings: 24 h, 1 µM, compound concentration 1 uM, replicate 2
The label is label 1 for Population Membrane Permeable-Phenotype (%) below 10% and label 0 for Population Membrane Permeable-Phenotype (%) equal to or exceeding 10%.

> print(dat)
                                   molecule  class.label
1  Cc1nc(-c2ccc(-c3ccc(C(=O)N4CCc5cc6c(cc54)C4(CCN(C)CC4)CO6)cc3)c(C)c2)no1      label 1
2  C[C@@]1(C(=O)Nc2ccc(F)nc2)CCCN1c1nc(Nc2cc(C3CC3)n[nH]2)c2cccn2n1      label 0
3  COc1cc(-n2cnc3cc(-c4ccc(Cl)cc4)sc3c2=O)ccc1OCCN1CCCC1      label 1
4  C=CC(=O)Nc1cccc(C(=O)Nc2ccc(Nc3cc(-c4[nH]c(SC)nc4C)ccn3)cc2)c1      label 1
5  Cc1nc(-c2cn3c(n2)-c2ccc(-c4cnn(C(C)(C)C(N)=O)c4)cc2OCC3)n(C(C)C)n1      label 0
6  CCN(CC)CCCCNc1ncc2cc(-c3cc(OC)cc(OC)c3)c(NC(=O)NC(C)(C)C)nc2n1      label 0
7  O=C1NCN(c2ccccc2)C12CCN(CCCOc1ccc(F)cc1)CC2 [SPIRAMIDE]      label 1
